Entry source: patent EP4467141A1

target: PIK3CB/PIK3R2 (p11 0 beta/p85 beta) (Homo sapiens, UniProt P42338); construct: purchased Thermo Fisher Scientific; test: Kinase panel study; type: biochemical; conditions: PIK3CB/PIK3R2; compound at 10µM; read-out: % of Inhibition
Sequence (P42338 whole entry): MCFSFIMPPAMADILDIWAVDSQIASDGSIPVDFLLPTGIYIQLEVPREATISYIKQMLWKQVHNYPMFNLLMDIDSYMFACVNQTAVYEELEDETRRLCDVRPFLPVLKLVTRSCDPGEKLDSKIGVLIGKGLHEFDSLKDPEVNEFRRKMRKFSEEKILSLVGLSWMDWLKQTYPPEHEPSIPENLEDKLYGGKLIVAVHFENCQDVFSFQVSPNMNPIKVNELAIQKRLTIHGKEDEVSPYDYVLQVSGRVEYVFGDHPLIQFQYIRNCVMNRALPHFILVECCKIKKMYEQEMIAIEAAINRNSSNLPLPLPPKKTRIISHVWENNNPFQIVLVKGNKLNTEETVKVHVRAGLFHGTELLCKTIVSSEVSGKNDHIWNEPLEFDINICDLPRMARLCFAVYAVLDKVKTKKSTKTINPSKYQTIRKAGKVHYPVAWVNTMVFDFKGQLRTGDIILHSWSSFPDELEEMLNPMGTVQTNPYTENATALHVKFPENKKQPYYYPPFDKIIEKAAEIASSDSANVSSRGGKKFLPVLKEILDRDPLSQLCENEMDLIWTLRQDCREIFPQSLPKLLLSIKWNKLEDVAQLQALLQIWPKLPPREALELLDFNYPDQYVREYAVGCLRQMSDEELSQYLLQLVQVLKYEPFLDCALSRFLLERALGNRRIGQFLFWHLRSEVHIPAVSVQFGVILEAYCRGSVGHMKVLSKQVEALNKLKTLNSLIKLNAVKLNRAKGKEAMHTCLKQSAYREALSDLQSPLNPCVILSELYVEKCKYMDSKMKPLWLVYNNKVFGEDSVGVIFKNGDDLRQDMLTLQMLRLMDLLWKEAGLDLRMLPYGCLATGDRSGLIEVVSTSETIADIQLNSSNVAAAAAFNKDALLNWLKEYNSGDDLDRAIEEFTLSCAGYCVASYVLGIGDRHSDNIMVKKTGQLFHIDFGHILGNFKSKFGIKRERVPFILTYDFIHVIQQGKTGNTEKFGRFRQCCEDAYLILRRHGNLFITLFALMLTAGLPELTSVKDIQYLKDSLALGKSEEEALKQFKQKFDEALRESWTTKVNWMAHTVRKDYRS
Sequence (O00459 whole entry partner): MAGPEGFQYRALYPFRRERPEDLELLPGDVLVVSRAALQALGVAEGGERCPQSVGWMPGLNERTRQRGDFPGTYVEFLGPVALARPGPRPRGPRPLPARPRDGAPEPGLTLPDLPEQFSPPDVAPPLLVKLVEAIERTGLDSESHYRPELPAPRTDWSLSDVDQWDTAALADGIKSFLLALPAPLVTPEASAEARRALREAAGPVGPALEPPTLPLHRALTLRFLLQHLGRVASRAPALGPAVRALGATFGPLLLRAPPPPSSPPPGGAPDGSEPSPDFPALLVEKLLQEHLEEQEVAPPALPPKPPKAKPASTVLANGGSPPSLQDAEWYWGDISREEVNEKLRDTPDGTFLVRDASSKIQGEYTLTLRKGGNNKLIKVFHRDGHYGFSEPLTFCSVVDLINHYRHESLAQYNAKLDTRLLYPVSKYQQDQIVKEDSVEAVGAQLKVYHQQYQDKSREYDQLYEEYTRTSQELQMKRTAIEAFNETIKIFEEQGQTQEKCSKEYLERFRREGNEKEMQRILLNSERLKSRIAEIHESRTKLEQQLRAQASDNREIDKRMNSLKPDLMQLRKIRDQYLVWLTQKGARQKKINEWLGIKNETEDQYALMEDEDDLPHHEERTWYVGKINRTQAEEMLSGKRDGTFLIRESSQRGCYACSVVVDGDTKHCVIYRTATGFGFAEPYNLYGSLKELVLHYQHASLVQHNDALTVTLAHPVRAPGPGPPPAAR
Quick list: inhibition at 10 µM per entry.
reported.endpoint: inhibition at 10 µM

{"compound": "COc1ccc2c(c1)c1ccnc3c4nc(OC)ccc4c(=O)n2c13", "obs.value": "12%"}
{"compound": "COc1ccc2c(c1)c1ccnc3c4ccnc(OC)c4c(=O)n2c13", "obs.value": "12%"}
{"compound": "O=c1c2cc(O)ccc2c2nccc3c4cc(O)ccc4n1c32", "obs.value": "35%"}
{"compound": "O=c1c2cnccc2c2nccc3c4cc(O)ccc4n1c32", "obs.value": "63%"}
{"compound": "COc1ccc2nc3c(cc2c1)c(N)nn3C(=O)c1cccc(N(C)C)c1 [MW05-E2]", "obs.value": "7%"}

###

target: PI4K2A (PI4K2 alpha) (Homo sapiens, UniProt Q9BTU6); construct: purchased Thermo Fisher Scientific; assay: Kinase panel study; assay type: biochemical; conditions: PI4K2A (PI4K2 alpha); compound at 10µM; read-out: % of Inhibition
Returns y if the recorded inhibition at 10 µM is greater than or equal to 10%, and n otherwise.

{"compound": "O=c1c2cc(O)ccc2c2nccc3c4cc(O)ccc4n1c32", "tested.system": "PI4K2A (PI4K2 alpha) (Homo sapiens, UniProt Q9BTU6)", "discrete.label": "y"}
{"compound": "O=c1c2cnccc2c2nccc3c4cc(O)ccc4n1c32", "tested.system": "PI4K2A (PI4K2 alpha) (Homo sapiens, UniProt Q9BTU6)", "discrete.label": "y"}
{"compound": "COc1ccc2c(c1)c1ccnc3c4ccnc(OC)c4c(=O)n2c13", "tested.system": "PI4K2A (PI4K2 alpha) (Homo sapiens, UniProt Q9BTU6)", "discrete.label": "y"}
{"compound": "COc1ccc2nc3c(cc2c1)c(N)nn3C(=O)c1cccc(N(C)C)c1 [MW05-E2]", "tested.system": "PI4K2A (PI4K2 alpha) (Homo sapiens, UniProt Q9BTU6)", "discrete.label": "n"}
{"compound": "COc1ccc2c(c1)c1ccnc3c4nc(OC)ccc4c(=O)n2c13", "tested.system": "PI4K2A (PI4K2 alpha) (Homo sapiens, UniProt Q9BTU6)", "discrete.label": "y"}

###

molecular target: PIK3C2G (PI3K-C2 gamma) (Homo sapiens); construct: purchased Thermo Fisher Scientific; assay: Kinase panel study; format: biochemical; details: PIK3C2G (PI3K-C2 gamma); compound at 10µM; read-out: % of Inhibition
Sequence (O75747 whole entry): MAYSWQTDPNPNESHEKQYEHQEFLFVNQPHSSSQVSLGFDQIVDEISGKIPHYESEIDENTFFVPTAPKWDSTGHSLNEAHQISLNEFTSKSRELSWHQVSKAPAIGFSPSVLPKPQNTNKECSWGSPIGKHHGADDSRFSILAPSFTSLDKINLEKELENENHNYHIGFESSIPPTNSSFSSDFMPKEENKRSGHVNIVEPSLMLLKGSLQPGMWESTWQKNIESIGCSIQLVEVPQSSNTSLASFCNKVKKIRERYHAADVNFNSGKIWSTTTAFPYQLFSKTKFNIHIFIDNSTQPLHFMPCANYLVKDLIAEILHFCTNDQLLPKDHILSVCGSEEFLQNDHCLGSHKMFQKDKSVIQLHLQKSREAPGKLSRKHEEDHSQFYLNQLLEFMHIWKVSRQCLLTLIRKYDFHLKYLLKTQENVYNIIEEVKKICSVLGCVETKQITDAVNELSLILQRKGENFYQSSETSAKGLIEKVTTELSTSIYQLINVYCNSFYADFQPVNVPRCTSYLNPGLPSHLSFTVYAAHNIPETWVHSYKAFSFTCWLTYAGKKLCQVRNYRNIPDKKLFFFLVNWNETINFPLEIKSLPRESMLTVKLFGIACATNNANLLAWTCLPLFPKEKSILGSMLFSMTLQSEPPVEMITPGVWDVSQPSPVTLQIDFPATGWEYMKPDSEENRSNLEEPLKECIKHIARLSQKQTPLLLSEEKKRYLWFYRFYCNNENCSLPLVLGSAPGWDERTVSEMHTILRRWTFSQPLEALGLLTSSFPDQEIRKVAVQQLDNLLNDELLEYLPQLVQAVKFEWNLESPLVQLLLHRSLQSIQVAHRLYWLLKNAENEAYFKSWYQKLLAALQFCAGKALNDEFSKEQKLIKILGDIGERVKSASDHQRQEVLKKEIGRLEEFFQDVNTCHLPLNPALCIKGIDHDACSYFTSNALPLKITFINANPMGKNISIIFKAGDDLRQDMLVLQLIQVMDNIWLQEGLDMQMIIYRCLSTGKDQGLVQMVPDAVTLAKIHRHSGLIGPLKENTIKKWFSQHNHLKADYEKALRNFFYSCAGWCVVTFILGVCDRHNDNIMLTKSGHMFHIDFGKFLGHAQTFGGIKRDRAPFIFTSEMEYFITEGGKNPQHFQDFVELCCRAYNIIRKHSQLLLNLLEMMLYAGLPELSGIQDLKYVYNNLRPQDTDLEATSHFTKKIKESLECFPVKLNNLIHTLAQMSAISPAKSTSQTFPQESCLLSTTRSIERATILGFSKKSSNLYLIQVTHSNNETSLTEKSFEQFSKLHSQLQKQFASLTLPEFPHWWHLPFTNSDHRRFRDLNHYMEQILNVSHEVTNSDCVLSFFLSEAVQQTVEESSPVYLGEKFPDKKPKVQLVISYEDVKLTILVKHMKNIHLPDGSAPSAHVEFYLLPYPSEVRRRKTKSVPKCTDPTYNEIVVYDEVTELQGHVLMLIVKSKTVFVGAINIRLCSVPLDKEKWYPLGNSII
Quick list: inhibition at 10 µM per entry.

{"compound": "O=c1c2cnccc2c2nccc3c4cc(O)ccc4n1c32", "u": "%", "inhibition at 10 µM": 81}
{"compound": "O=c1c2cc(O)ccc2c2nccc3c4cc(O)ccc4n1c32", "u": "%", "inhibition at 10 µM": 81}
{"compound": "COc1ccc2c(c1)c1ccnc3c4ccnc(OC)c4c(=O)n2c13", "u": "%", "inhibition at 10 µM": 50}
{"compound": "COc1ccc2nc3c(cc2c1)c(N)nn3C(=O)c1cccc(N(C)C)c1 [MW05-E2]", "u": "%", "inhibition at 10 µM": 27}
{"compound": "COc1ccc2c(c1)c1ccnc3c4nc(OC)ccc4c(=O)n2c13", "u": "%", "inhibition at 10 µM": 35}

###

target: AKT3 (PKB gamma) (Homo sapiens); construct: purchased Thermo Fisher Scientific; assay: Kinase panel study; assay type: biochemical; settings: AKT3 (PKB gamma); compound at 10µM; read-out: % of Inhibition
Quick list: inhibition at 10 µM per entry.
reported.endpoint: inhibition at 10 µM

{"molecule": "COc1ccc2nc3c(cc2c1)c(N)nn3C(=O)c1cccc(N(C)C)c1 [MW05-E2]", "obs.value": "11%"}
{"molecule": "COc1ccc2c(c1)c1ccnc3c4nc(OC)ccc4c(=O)n2c13", "obs.value": "12%"}
{"molecule": "O=c1c2cc(O)ccc2c2nccc3c4cc(O)ccc4n1c32", "obs.value": "24%"}
{"molecule": "O=c1c2cnccc2c2nccc3c4cc(O)ccc4n1c32", "obs.value": "19%"}
{"molecule": "COc1ccc2c(c1)c1ccnc3c4ccnc(OC)c4c(=O)n2c13", "obs.value": "23%"}

###

Quick list: inhibition at 10 µM per entry.
target: CLK4 (Homo sapiens, UniProt Q9HAZ1); construct: purchased Thermo Fisher Scientific; assay: Kinase panel study; format: biochemical; settings: CLK4; compound at 10µM; read-out: % of Inhibition
reported.endpoint: inhibition at 10 µM (%)

{"compound": "O=c1c2cc(O)ccc2c2nccc3c4cc(O)ccc4n1c32 [MW01-E10]", "obs.value": 99}
{"compound": "COc1ccc2c(c1)c1ccnc3c4ccnc(OC)c4c(=O)n2c13 [MW01-E14]", "obs.value": 67}
{"compound": "COc1ccc2c(c1)c1ccnc3c4nc(OC)ccc4c(=O)n2c13 [MW01-E6]", "obs.value": 58}
{"compound": "O=c1c2cnccc2c2nccc3c4cc(O)ccc4n1c32 [MW01-E18]", "obs.value": 98}
{"compound": "COc1ccc2nc3c(cc2c1)c(N)nn3C(=O)c1cccc(N(C)C)c1 [MW05-E2]", "obs.value": 75}

###

Quick list: inhibition at 10 µM per entry.
molecular target: ALK (Homo sapiens, UniProt Q9UM73); construct: purchased Thermo Fisher Scientific; assay: Kinase panel study; type: biochemical; details: ALK; compound at 10µM; read-out: % of Inhibition
reported.endpoint: inhibition at 10 µM (%)

{"compound": "O=c1c2cc(O)ccc2c2nccc3c4cc(O)ccc4n1c32", "obs.value": 75}
{"compound": "COc1ccc2c(c1)c1ccnc3c4nc(OC)ccc4c(=O)n2c13", "obs.value": 19}
{"compound": "COc1ccc2nc3c(cc2c1)c(N)nn3C(=O)c1cccc(N(C)C)c1 [MW05-E2]", "obs.value": 24}
{"compound": "O=c1c2cnccc2c2nccc3c4cc(O)ccc4n1c32", "obs.value": 35}
{"compound": "COc1ccc2c(c1)c1ccnc3c4ccnc(OC)c4c(=O)n2c13", "obs.value": 15}

###

Read-out record for PIK3CG (p11 0 gamma) (Homo sapiens, UniProt P48736): IC50
reported.endpoint: IC50

{"chemical.smiles": "COc1ccc2c(c1OC)c(=O)n1c3ccc(O)cc3c3ccnc2c31", "obs.value": "≤ 2 µM"}
{"chemical.smiles": "COc1ccc2cc3c(N)nn(C(=O)c4cccc(N(C)C)c4)c3nc2c1", "obs.value": "≤ 2 µM"}

###

target: PIK3C2A (PI3K-C2 alpha) (Homo sapiens); construct: purchased Thermo Fisher Scientific; experiment: Kinase panel study; assay type: biochemical; conditions: PIK3C2A (PI3K-C2 alpha); compound at 10µM; read-out: % of Inhibition
Sequence (O00443 whole entry): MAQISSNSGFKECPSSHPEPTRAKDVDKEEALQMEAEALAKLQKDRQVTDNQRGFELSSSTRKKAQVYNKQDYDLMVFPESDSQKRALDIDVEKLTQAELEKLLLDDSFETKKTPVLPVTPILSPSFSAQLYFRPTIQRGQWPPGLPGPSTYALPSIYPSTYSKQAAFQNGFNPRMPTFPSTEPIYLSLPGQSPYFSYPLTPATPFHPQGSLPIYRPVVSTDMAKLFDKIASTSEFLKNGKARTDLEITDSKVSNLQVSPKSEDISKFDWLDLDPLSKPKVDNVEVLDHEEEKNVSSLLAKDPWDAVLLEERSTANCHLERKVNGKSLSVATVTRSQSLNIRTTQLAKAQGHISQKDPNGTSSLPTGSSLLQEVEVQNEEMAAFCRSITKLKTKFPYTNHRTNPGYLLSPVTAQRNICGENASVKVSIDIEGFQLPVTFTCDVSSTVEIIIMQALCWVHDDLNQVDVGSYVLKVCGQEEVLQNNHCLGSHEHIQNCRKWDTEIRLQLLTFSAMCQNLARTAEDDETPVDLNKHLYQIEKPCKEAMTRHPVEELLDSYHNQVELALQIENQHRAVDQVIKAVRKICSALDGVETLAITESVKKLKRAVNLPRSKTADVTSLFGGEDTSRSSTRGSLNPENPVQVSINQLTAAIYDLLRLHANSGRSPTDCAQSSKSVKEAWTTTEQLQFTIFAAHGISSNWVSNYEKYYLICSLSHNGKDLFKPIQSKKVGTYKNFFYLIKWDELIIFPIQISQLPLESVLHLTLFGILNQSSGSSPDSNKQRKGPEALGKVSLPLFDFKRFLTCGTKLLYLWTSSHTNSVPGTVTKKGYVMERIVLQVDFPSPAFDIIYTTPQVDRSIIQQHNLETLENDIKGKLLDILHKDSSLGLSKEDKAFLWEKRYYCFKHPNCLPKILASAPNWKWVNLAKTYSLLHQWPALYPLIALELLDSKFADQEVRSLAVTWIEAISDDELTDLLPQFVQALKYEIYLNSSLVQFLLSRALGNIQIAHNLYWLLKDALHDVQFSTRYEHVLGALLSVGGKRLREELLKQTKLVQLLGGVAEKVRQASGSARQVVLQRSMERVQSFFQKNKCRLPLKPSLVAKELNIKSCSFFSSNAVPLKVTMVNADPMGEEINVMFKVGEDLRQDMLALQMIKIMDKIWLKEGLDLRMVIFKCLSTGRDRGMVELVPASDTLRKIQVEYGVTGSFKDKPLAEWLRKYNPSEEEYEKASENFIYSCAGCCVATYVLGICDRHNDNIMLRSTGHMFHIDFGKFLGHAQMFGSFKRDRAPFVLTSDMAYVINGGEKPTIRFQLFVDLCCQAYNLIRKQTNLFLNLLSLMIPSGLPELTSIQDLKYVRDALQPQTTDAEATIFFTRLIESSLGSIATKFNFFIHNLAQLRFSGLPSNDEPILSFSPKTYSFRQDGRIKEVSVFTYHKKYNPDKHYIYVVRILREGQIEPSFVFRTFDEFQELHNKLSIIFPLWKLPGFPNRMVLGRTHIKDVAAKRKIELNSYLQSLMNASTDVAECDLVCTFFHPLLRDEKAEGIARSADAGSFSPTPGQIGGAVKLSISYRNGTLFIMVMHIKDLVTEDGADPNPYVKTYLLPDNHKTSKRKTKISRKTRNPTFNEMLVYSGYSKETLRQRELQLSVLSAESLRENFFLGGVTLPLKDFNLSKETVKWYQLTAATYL
Returns Yes if the recorded inhibition at 10 µM is greater than or equal to 20%, and No otherwise.

{"molecule": "COc1ccc2c(c1)c1ccnc3c4nc(OC)ccc4c(=O)n2c13", "discrete.label": "Yes"}
{"molecule": "O=c1c2cnccc2c2nccc3c4cc(O)ccc4n1c32", "discrete.label": "Yes"}
{"molecule": "COc1ccc2nc3c(cc2c1)c(N)nn3C(=O)c1cccc(N(C)C)c1 [MW05-E2]", "discrete.label": "No"}
{"molecule": "COc1ccc2c(c1)c1ccnc3c4ccnc(OC)c4c(=O)n2c13", "discrete.label": "Yes"}
{"molecule": "O=c1c2cc(O)ccc2c2nccc3c4cc(O)ccc4n1c32", "discrete.label": "Yes"}

###

Quick list: inhibition at 10 µM per entry.
target: PI4KB (PI4K beta) (Homo sapiens); construct: purchased Thermo Fisher Scientific; assay: Kinase panel study; format: biochemical; settings: PI4KB (PI4K beta); compound at 10µM; read-out: % of Inhibition
reported.endpoint: inhibition at 10 µM (%)

{"compound": "COc1ccc2nc3c(cc2c1)c(N)nn3C(=O)c1cccc(N(C)C)c1 [MW05-E2]", "reported.endpoint": "inhibition at 10 µM", "u": "%", "obs.value": 9}
{"compound": "COc1ccc2c(c1)c1ccnc3c4nc(OC)ccc4c(=O)n2c13 [MW01-E6]", "reported.endpoint": "inhibition at 10 µM", "u": "%", "obs.value": 12}
{"compound": "COc1ccc2c(c1)c1ccnc3c4ccnc(OC)c4c(=O)n2c13 [MW01-E14]", "reported.endpoint": "inhibition at 10 µM", "u": "%", "obs.value": 36}
{"compound": "O=c1c2cc(O)ccc2c2nccc3c4cc(O)ccc4n1c32 [MW01-E10]", "reported.endpoint": "inhibition at 10 µM", "u": "%", "obs.value": 90}
{"compound": "O=c1c2cnccc2c2nccc3c4cc(O)ccc4n1c32 [MW01-E18]", "reported.endpoint": "inhibition at 10 µM", "u": "%", "obs.value": 81}
